- target_desc: T1, gp100 (human)
- T1 construct: cell surface;cell surface complex; also called HLA-A2 / gp100 peptide complex on T2 cells
- experiment: flow cytometry on peptide-pulsed T2 cells, scFv 100 nM;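 also: scFv binding read as gMFI and normalized to the level of HLA/peptide complex displayed on T2 cells, with homologous 9-mer peptides used to probe specificity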

[
  {
    "binder": "NYA-2045 (scFv, also called NYA-2045 tag adduct) scFv: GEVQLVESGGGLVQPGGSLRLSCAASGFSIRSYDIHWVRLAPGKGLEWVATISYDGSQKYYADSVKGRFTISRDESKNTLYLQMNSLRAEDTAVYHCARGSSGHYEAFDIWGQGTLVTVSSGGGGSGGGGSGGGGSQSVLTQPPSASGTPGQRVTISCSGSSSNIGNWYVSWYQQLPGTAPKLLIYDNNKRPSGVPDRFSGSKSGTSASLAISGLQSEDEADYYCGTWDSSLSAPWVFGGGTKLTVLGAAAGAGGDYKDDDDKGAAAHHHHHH",
    "standardized gMFI": 0.3
  },
  {
    "binder": "NYA-1154 (scFv) scFv: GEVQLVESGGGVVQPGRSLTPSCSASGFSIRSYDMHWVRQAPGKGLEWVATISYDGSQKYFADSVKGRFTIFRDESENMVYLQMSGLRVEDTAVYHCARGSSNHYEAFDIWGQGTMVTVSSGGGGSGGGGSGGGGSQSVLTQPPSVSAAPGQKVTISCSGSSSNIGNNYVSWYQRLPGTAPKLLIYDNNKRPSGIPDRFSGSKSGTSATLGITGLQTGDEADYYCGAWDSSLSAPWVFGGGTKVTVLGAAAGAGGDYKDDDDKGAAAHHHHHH",
    "standardized gMFI": 0.31
  },
  {
    "binder": "NYC-0003 (scFv, not shown: small tags and cut ends, also called 3M4E5 scFv; NYC-0003 tag adduct) scFv: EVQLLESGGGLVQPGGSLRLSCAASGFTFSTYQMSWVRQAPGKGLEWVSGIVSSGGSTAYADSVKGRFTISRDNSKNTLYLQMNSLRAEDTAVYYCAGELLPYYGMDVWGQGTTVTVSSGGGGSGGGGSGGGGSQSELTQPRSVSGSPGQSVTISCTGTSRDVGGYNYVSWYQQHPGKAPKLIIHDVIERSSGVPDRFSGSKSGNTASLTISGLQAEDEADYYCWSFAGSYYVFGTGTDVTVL",
    "standardized gMFI": 0.32
  }
]
